Recorded values, source patent US20130129746A1.

- SYSTEM: T1, Human Serum Albumin (human, UniProt P02768 25-609)
- T1 construct: mature; purified protein on CM5 chips for BIAcore; also called HSA; human SA
- METHOD SUMMARY: BIAcore SPR;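 further: purified dAbs run at 1 µM, 500 nM and 50 nM over human, cynomolgus, mouse and rat serum albumin in BIAcore binding measurements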
QUANTITY MEASURED: koff (s⁻¹)

# BINDER, MEAS VALUE
data = [
    ("DOM7h-11-12 (other) VL: DIQMTQSPSSLSASVGDRVTITCRASRPIGTMLSWYQQKPGKAPKLLILFGSRLQSGVPSRFSGSGSGTDFTLTISSLQPEDFATYYCAQAGTHPTTFGQGTKVEIKR", 0.413),
    ("DOM7h-11-15 (other) VL: DIQMTQSPSSLSASVGDRVTITCRASRPIGTMLSWYQQKPGKAPKLLILAFSRLQSGVPSRFSGSGSGTDFTLTISSLQPEDFATYYCAQAGTHPTTFGQGTKVEIKR", 0.00184),
]
